The reported numbers originate from the supplement of paper PMC6522484.

Tested on: SW480
assay remarks: TCF/Wnt firefly luciferase reporter signal relative to plate median (fraction of plate median); higher = higher Wnt reporter signal
measurement context: 5 µM; treatment time 24 h; reporter: 7TFP
Param threshold (1) applies to TCF/Wnt firefly luciferase reporter signal; output yes (1) when value >= threshold, no (0) when value < threshold.

Completed entries (count: 3):
{"columns": ["compound", "class label"],
 "data": [
  ["COc1ccc2c(c1)c(CC(=O)OCC(=O)O)c(C)n2C(=O)c1ccc(Cl)cc1", "yes (1)"],
  ["O=c1c2cc(O)c(O)cc2oc2cc(O)c([C@@H]3O[C@H](CO)[C@@H](O)[C@H](O)[C@H]3O)c(O)c12", "no (0)"],
  ["COC(=O)[C@]1(C)CCC[C@]2(C)c3ccc(C(C)C)cc3C(=O)CC12 (stereo partly specified)", "yes (1)"]
]}

Is TCF/Wnt firefly luciferase reporter signal for CC(C)CCC[C@@H](C)[C@H]1CC[C@H]2[C@@H]3C[C@@H](O)[C@@]4(O)C[C@@H](O)CC[C@]4(C)[C@H]3CC[C@]12C [CHOLESTAN-3beta,5alpha,6beta-TRIOL] at or above 1?
no (0)

Hello, I need to know if "Cc1cc(OC(=O)c2c(C)cc(O)cc2O)cc(O)c1C(=O)O" has measured TCF/Wnt firefly luciferase reporter signal not below 1. Thanks!
yes (1)

Say whether COC(=O)C(N)CS (stereo unspecified) shows TCF/Wnt firefly luciferase reporter signal of 1 or more.
no (0)

Would you say "Cc1c(N(C)C)c(=O)n(-c2ccccc2)n1C" shows TCF/Wnt firefly luciferase reporter signal at minimum 1?
no (0)

Does "Nc1ccc(S(=O)(=O)Nc2ccc(Cl)nn2)cc1" have a reported TCF/Wnt firefly luciferase reporter signal of at least 1?
yes (1)

API: above_or_equal(metric=TCF/Wnt firefly luciferase reporter signal, cutoff=1) for item "COc1cccc2c1C(=O)c1c(O)c3c(c(O)c1C2=O)C[C@@](O)(C(C)=O)C[C@@H]3O[C@H]1C[C@H](N)[C@H](O)[C@H](C)O1"
no (0)

# bool: TCF/Wnt firefly luciferase reporter signal of "C[C@H](N)CO" >= 1
yes (1)

For this compound, is measured TCF/Wnt firefly luciferase reporter signal 1 or higher? "OCCc1ccccc1"
yes (1)

Has "CC(=O)O[C@H]1C[C@@]2(C)[C@@H](C[C@@H](O)[C@H]3[C@@]4(C)CC[C@@H](O)[C@@H](C)[C@@H]4CC[C@@]32C)/C1=C(\CCC=C(C)C)C(=O)O" a recorded TCF/Wnt firefly luciferase reporter signal greater than or equal to 1?
yes (1)

Please check the record "Oc1c(Cl)cc(Cl)cc1Sc1cc(Cl)cc(Cl)c1O" and state if its TCF/Wnt firefly luciferase reporter signal is at or above 1.
no (0)

Confirm if TCF/Wnt firefly luciferase reporter signal reported for the compound "CCN(CC)CCNC(=O)c1cc(S(C)(=O)=O)ccc1OC" is 1 or above.
no (0)

Determine whether measured TCF/Wnt firefly luciferase reporter signal meets or exceeds 1 for "O=C1N=C(O)NC1(c1ccccc1)c1ccccc1"
yes (1)

Confirm if TCF/Wnt firefly luciferase reporter signal reported for the compound "COc1ccc(-c2cc(=O)c3c(O)cc(OC)c(OC)c3o2)c(OC)c1" is 1 or above.
no (0)
